Would you mind telling me the reported growth inhibition of each entry?
Assay: NCI Yeast Anticancer Drug Screen. Data for the mlh1 rad18 strain (AID 175)
Details: S. cerevisiae mlh1 rad18 strain growth inhibition; at 50.0 µM; active compounds read high
This is part of a sample that, as a whole, favours compounds with a hit. Of some 79,000 tested, about 15% had one in any assay.
Numbers only, in %.

1) CCOP(=O)(OCC)/C(C#N)=C/c1ccc(OC)cc1; -1.05

Hello, I would appreciate it if you could give growth inhibition for each entry below.
1. C[N+](C)(C)CC1(COC(=O)C(O)(c2ccccc2)c2ccccc2)CCCCC1
2. O=[N+]([O-])c1cccc(N=Nc2ccc(N(CCCl)CCCl)cc2)c1
3. Cc1nccc2c1[nH]c1ccccc12
4. CCCCOP(=O)(/C=C/c1cccs1)OCCCC
5. CCOC(CCCN1CCC2(CC1)C(=O)N(C)CN2c1ccccc1)(OCC)c1ccc(F)cc1
6. O=C1NC(=O)C(O)(Cc2ccccn2)C(=O)N1

[5.05, 11.6, 2.3, 37.1, 25.2, -6.65]
